B1: glmS ribozyme (parent)
chain: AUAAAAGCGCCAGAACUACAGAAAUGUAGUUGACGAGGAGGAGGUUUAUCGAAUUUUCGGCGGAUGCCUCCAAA

- Variants of: B1
- TEST_DESCRIPTION: KM; higher = weaker cofactor use; RNA array
- TEST_CONTEXT: with glucosamine-6-phosphate
ASSAY_ENDPOINT: KM (µM)
Give your result in µM as a bare value.

# query: KM of entry G13U U45A
2010

Quick one: KM of A53U U57G ?
4010

Could you share which KM value was measured for A15G U65G ?
4200

May I ask what KM has been recorded for G59A C70U ?
1970

// lookup KM for C16U C67G
1570
